Target sequence: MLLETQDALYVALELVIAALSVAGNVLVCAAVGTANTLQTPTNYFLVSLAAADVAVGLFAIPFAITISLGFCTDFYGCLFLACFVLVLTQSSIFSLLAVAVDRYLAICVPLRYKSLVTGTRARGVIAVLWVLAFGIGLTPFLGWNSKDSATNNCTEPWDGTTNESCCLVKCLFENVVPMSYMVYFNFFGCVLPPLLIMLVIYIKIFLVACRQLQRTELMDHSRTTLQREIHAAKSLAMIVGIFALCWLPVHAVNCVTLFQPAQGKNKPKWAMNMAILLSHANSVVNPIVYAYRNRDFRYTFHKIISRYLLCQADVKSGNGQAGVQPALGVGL
REPORTED ENDPOINT: pKi
One number for each entry, as −log10 of the molar value.

# count of solved cases: 5
COMPOUND: CC1=C(C(=O)OC(C)C)C(c2cccs2)N/C(=N/C#N)N1 (racemic)
pKi: 6.46

COMPOUND: CC1=C(C(=O)OC(C)C)[C@@H](c2ccco2)N/C(=N/C#N)N1
pKi: 7.82

COMPOUND: CC1=C(C(=O)OC(C)C)C(c2ccsc2)N/C(=N/C#N)N1 (racemic)
pKi: 6.19

COMPOUND: CCOC(=O)C1=C(C)N/C(=N\C#N)NC1c1cccs1 (racemic)
pKi: 7.29

COMPOUND: CC1=C(C(=O)OC(C)C)C(c2ccco2)N/C(=N/C#N)N1 (racemic)
pKi: 7.61

Next up:
Problem: Report pKi for CCOC(=O)C1=C(C)N/C(=N\C#N)NC1c1ccsc1 (racemic) please.
Result: 6.34

---

For each entry below, report its inhibition value.
biological target: UniProt P29274; experiment: Displacement of [3H]4-(2-[7-amino-2-(2-furyl)[1,2,4]triazolo[2,3-a][1,3,5]triazin-5-ylamino]ethyl)phenol from human adenosine A2A receptor expressed in human Hela cell membranes at 1 uM after 30 mins
One number for each entry, in %.

Could you tell me inhibition for each of these compounds? They are listed below.
1. CCOC(=O)C1=C(C)N/C(=N\C#N)NC1C1CCCC1 (racemic)
2. CCOC(=O)C1=C(C)N/C(=N\C#N)NC1c1ccsc1 (racemic)
3. CC1=C(C(=O)OC(C)C)C(c2ccsc2)N/C(=N/C#N)N1 (racemic)
4. CC1=C(C(=O)OC(C)C)C(c2ccccc2)N/C(=N/C#N)N1 (racemic)

Result:
10
30
18
12

---

For each entry below, report its inhibition value.
biological target: Adenosine receptor A2b (Homo sapiens); test: Displacement of [3H]DPCPX from human adenosine A2B receptor expressed in HEK293 cell membranes at 1 uM after 30 mins
Numbers only, in %.

# count of solved cases: 3
COMPOUND: CCOC(=O)C1=C(C)N/C(=N\C#N)NC1c1ccccc1 (racemic)
MEASURE UNIT: %
NUMBER: 25
//
COMPOUND: CCOC(=O)C1=C(C)NC(=O)NC1C1CCCC1 (centres undefined)
MEASURE UNIT: %
NUMBER: 2
//
COMPOUND: CC1=C(C(=O)OC(C)C)[C@H](c2ccco2)N/C(=N/C#N)N1
MEASURE UNIT: %
NUMBER: 23

Next up:
Problem: Report inhibition for CC1=C(C(=O)OC(C)C)C(c2ccccc2)N/C(=N/C#N)N1 (racemic) please.
Result: 32

---

biological target: UniProtKB P0DMS8; experiment: Displacement of [3H]NECA from human adenosine A3 receptor expressed in human Hela cell membranes at 1 uM after 180 mins
Sequence (P0DMS8 whole entry): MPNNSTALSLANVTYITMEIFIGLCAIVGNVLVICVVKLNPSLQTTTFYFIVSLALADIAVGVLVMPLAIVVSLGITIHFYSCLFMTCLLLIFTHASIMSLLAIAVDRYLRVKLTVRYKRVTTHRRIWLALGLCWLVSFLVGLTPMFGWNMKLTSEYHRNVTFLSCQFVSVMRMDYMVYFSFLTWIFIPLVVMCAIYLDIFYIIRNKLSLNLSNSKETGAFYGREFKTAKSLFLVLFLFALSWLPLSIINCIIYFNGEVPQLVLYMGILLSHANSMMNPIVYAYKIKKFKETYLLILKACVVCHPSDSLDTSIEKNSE
REPORTED ENDPOINT: inhibition (%)
Answers are plain numbers, in %.

MOLECULE: CCOC(=O)C1=C(C)N/C(=N\C#N)NC1c1ccoc1 (racemic)
STUDY TARGET: UniProtKB P0DMS8
MEASURE UNIT: %
NUMBER: 14
--
MOLECULE: CC1=C(C(=O)OC(C)C)C(c2ccccc2)NC(=O)N1 (configuration not stated)
STUDY TARGET: UniProtKB P0DMS8
MEASURE UNIT: %
NUMBER: 2
--
MOLECULE: CC1=C(C(=O)OC(C)C)C(c2ccccc2)N/C(=N/C#N)N1 (racemic)
STUDY TARGET: UniProtKB P0DMS8
MEASURE UNIT: %
NUMBER: 6
--
MOLECULE: CCOC(=O)C1=C(C)NC(=O)NC1C1CCCC1 (configuration not stated)
STUDY TARGET: UniProtKB P0DMS8
MEASURE UNIT: %
NUMBER: 18
--
MOLECULE: CCOC(=O)C1=C(C)NC(=O)NC1c1ccsc1 (configuration not stated)
STUDY TARGET: UniProtKB P0DMS8
MEASURE UNIT: %
NUMBER: 24
--
MOLECULE: CC1=C(C(=O)OC(C)C)C(c2ccoc2)N/C(=N/C#N)N1 (racemic)
STUDY TARGET: UniProtKB P0DMS8
MEASURE UNIT: %
NUMBER: 41

Could you tell me inhibition for each of these molecules? They are listed below.
1. CCOC(=O)C1=C(C)N/C(=N\C#N)NC1c1cccs1 (racemic)
2. CC1=C(C(=O)OC(C)C)C(c2ccsc2)N/C(=N/C#N)N1 (racemic)
3. CC1=C(C(=O)OC(C)C)C(c2ccsc2)NC(=O)N1 (configuration not stated)

Result:
3
13
1

Could you tell me inhibition for each of these molecules? They are listed below.
1. CCOC(=O)C1=C(C)NC(=O)NC1c1ccccc1 (configuration not stated)
2. CC1=C(C(=O)OC(C)C)C(c2cccs2)N/C(=N/C#N)N1 (racemic)

Result:
2
27
